System: rape
ASSAY_PROTOCOL: Test B pre/postemergence rape
Format: in vivo, Brassica napus
EXPERIMENTAL_CONDITIONS: Postemergence, Rate 62 g/ha; scale of 0 to 10, 0 is no effect, 10 is complete control
Method: […] At the same time, these crop and weed species were also treated with postemergence applications of test chemicals formulated in the same manner. […] Treated plants and controls were maintained in a greenhouse for twelve to sixteen days, after which all species were compared to controls and visually evaluated. […]
REPORTED_METRIC: Rape plant response rating
Reply with just the number.

The examples below pair each entry with its known result.
>  <MOLECULE>
CC(C)N(C(=O)n1oc(=O)n(C(C)C(=O)c2ccccc2)c1=O)c1ccc(Cl)cc1 (centres unmarked) [Compound 541]

>  <Rape plant response rating>
0

$$$$
>  <MOLECULE>
CC(C)=CCn1c(=O)on(C(=O)N(c2ccccc2)C(C)C)c1=O [Compound 574]

>  <Rape plant response rating>
0

$$$$
>  <MOLECULE>
CC(C)N(C(=O)n1oc(=O)n(CCCC(F)(F)F)c1=O)c1ccc(Cl)cc1 [Compound 555]

>  <Rape plant response rating>
4

$$$$

Noted for CC(=O)OCCCCn1c(=O)on(C(=O)N(c2ccccc2)C(C)C)c1=O [Compound 565] : its Rape plant response rating reads 0

Noted for CC(Cl)=CCn1c(=O)on(C(=O)N(c2ccc(Cl)cc2)C(C)C)c1=O [Compound 544] : its Rape plant response rating reads 0

FYI, the data here is from patent US6737383B1.
